thermal shift delta Tm overview
Test system: LOC_OS06G22820-cb001;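 also: purified Escherichia coli-expressed rice kinase domain construct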
Sequence (as listed by the source): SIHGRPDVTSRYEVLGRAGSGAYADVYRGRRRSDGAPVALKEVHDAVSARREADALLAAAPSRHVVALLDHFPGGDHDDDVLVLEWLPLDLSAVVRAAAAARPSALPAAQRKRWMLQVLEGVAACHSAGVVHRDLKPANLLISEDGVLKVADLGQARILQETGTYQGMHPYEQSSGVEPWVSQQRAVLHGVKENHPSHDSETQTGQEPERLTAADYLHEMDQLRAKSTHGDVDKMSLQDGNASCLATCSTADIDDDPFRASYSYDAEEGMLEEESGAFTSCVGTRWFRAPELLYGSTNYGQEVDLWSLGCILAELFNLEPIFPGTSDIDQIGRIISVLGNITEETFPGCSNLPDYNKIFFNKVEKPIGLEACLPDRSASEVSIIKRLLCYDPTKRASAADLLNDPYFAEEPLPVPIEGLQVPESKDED
Assay: thermal shift delta Tm vs DMSO control; higher = stronger stabilization (binding)
Conditions: 12.5 µM; protein concentration 2 µM
Expressed in °C, but write only the number.

>  <MOLECULE>
O=C1NC(=O)C(c2ccccc2[N+](=O)[O-])=C1Nc1ccc(O)c(Cl)c1

>  <thermal shift delta Tm [°C]>
0.75

$$$$
>  <MOLECULE>
C=C[C@@](C)(/C=C/c1ccc(O)cc1)CCC=C(C)C [Bakuchiol]

>  <thermal shift delta Tm [°C]>
0.41

$$$$

q: What value of thermal shift delta Tm has been reported for the following molecule? O=C(Nc1ccccc1C(=O)NC1CCCCNC1=O)c1cc2ccccc2s1 (centres undefined)
a: 0.25

q: Fill in the blank: the reported thermal shift delta Tm of CN1CCN(Cc2ccc(NC(=O)Nc3ccc(Oc4ccnc(N)n4)cc3)cc2C(F)(F)F)CC1 is ____.
a: 0.66

q: If you can, please state the reported thermal shift delta Tm value of Nc1nc(N)c2nc(-c3cccc(O)c3)c(-c3cccc(O)c3)nc2n1 .
a: 0.53
